test: p53 small molecule agonists, cell-based qHTS assay (AID 1963582); details: HCT-116 p53RE-bla reporter, beta-lactamase FRET ratio, 16 h; series mostly up to 66 µM
Results filed as inconclusive are left out. Activity calls are given as the source filed them. Calls follow the shape of the dose curve; as a rule, active = well fitted activation curve with a large enough effect in the signal ratio in the repeat runs (not every such curve was filed as active); inconclusive = weak or mixed curves; inactive = flat fitted curve, though single readings scatter; the % refers to the signal ratio.
Pick from y for active, n for inactive when you respond.

* CC(=O)Oc1ccccc1C(=O)O | n
* c1ccc2scnc2c1 | n
* CC1(C)S[C@@H]2[C@H](NC(=O)[C@H](N)c3ccccc3)C(=O)N2[C@H]1C(=O)O | n
* COC(=O)c1cccnc1 | n
* Cc1ccnc2c1NC(=O)c1cccnc1N2C1CC1 | n

Let us examine a further case.
Exercise: Would you mind telling me which call this test gave `NC(=O)NC(N)=O` ?
Solution: n

---

target: Beta-2 adrenergic receptor (Homo sapiens); test: Adrenergic beta2 receptor (ADRB2) small molecule antagonists, cell-based qHTS assay (AID 1963592); conditions: CHO-ADRB2 cells, isoproterenol-stimulated cAMP HTRF ratio, 0.5 h; series mostly up to 92.4 µM; also: nearly all actives have a fitted effect of over 50% in size
Results filed as inconclusive are left out. The source made the active and inactive calls. Calls follow the shape of the full dose curve.
test.readout: outcome

- CC(=O)NS(=O)(=O)c1ccc(N)cc1: inactive
- Cc1cccc2ccccc12: inactive
- O=c1c(O)c(-c2ccc(O)cc2)oc2cc(O)cc(O)c12: inactive
- CC/C(C)=N/O: inactive
- CC(=O)N[C@@H](CS)C(=O)O: inactive

Let us examine a further case.
For `CC(=O)O[C@]1(C(C)=O)CC[C@H]2[C@@H]3C=C(Cl)C4=CC(=O)[C@@H]5C[C@@H]5[C@]4(C)[C@H]3CC[C@@]21C` on Beta-2 adrenergic receptor (Homo sapiens), measured outcome was inactive

---

assay: p53 small molecule agonists, cell-based qHTS assay with human liver microsomes (AID 1963577); settings: HCT-116 p53RE-bla with human liver microsomes, ratio, 16 h; series mostly up to 66 µM;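 also: p53 response element beta-lactamase reporter cells with liver microsomes plus NADPH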
Records with an inconclusive call do not appear. Active and inactive are the calls of the source. Calls follow the shape of the full dose curve.
test.readout: outcome

* CCCCCCCC(=O)O | inactive
* COC(=O)c1cccnc1 | inactive
* C=CCOC(=O)CC(C)C | inactive
* C=C(C)C(=O)OCCC[Si](OC)(OC)OC | inactive
* COc1cc([C@H]2Oc3cc([C@H]4Oc5cc(O)cc(O)c5C(=O)[C@@H]4O)ccc3O[C@@H]2CO)ccc1O | inactive
* O=S1(=O)CCCO1 | inactive
* c1ccc2n[nH]nc2c1 | inactive
* Nc1ccc(S(=O)(=O)Nc2nccs2)cc1 | inactive
* CCCOC(=O)NCCCN(C)C | inactive
* CC(=O)c1ccc(O)cc1 | inactive

The compound listed as `CCCCCCCCCC` shows outcome equal to inactive

The compound listed as CCCCCCCCC/C=C/CC1CC(=O)OC1=O (stereo not given) shows outcome equal to inactive

The compound listed as `c1ccc2c(c1)Cc1ccccc1-2` shows outcome equal to inactive

The compound listed as CC(C)Cc1ccc(C(C)C(=O)O)cc1 (stereo not given) shows outcome equal to inactive

The compound listed as `CCCNC(=O)NS(=O)(=O)c1ccc(Cl)cc1` shows outcome equal to inactive

---

assay: p53 small molecule agonists, cell-based qHTS assay: qHTS cell viability counter screen (AID 1963581); conditions: p53RE-bla HCT-116 viability, ATP luminescence, 16 h; series mostly up to 66 µM; also: nearly all actives have a fitted effect of over 45% in size
Inconclusive results are not listed. The source made the active and inactive calls. Calls follow the shape of the full dose curve.
test.readout: outcome

* CCCCCC(=O)O | inactive
* CC(=O)c1ccccc1 | inactive
* CCCCCCO | inactive
* Nc1cc([N+](=O)[O-])ccc1C(=O)O | inactive
* CNC[C@H](O)c1ccc(O)c(O)c1 | inactive

Let us examine a further case.
The molecule listed as `NCCS(=O)(=O)O` shows outcome equal to inactive
